tested on: Candida parapsilosis; assay: Antifungal activity against Candida parapsilosis ATCC 90018 WTBF-88 by microbroth dilution method; assay type: functional; conditions: Lodderomyces parapsilosis
Readout label: MIC (µg/mL)

| Compound | Endpoint result |
| --- | --- |
| CC(=O)O.c1cc2cc(-c3ccc4nc(C5=NCCCN5)cn4c3)[nH]c2cc1C1=NCCCN1 | 1 |
| CC(=O)O.c1cc2cc(-c3cnc(-c4cc5ccc(C6=NCCCN6)cc5[nH]4)nc3)[nH]c2cc1C1=NCCCN1 | 0.13 |
| C[C@@H]1[C@H](O)[C@@H](C)/C=C/C=C/C=C/C=C/C=C/C=C/C=C/[C@H](O[C@@H]2O[C@H](C)[C@@H](O)[C@H](N)[C@@H]2O)C[C@@H]2O[C@](O)(C[C@@H](O)C[C@@H](O)[C@H](O)CC[C@@H](O)C[C@@H](O)CC(=O)O[C@H]1C)C[C@H](O)[C@H]2C(=O)O [AMPHOTERICIN B] | 0.31 |
